Experiment: chemical genetic growth profiling, strain panel (AID 1159580);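 note: tested at 20 µM; growth read once vehicle control cultures reached saturation at 30 °C; lower values mean less growth of the strain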
Settings: S. cerevisiae deletion strains, growth OD, locus YDL040C, strain nat1
Out of some 5,500 compounds screened, about 2,000 (36%) were called active. Another 18% or so got no clear call; they are omitted. Cut-off read from the data, not from the text of the source: active = normalized growth mostly below about 0.91 (no sharp cut-off); inconclusive = no clear call, values can overlap the other calls; inactive = mostly above about 0.92. The list shows a part of the results.
Labels: active, inactive

CC(=O)CC(=O)CCC(=O)O: inactive
CC(C(=O)O)c1ccc2c(c1)[nH]c1ccc(Cl)cc12 (configuration not stated): inactive
COc1cc(OC)c2c(c1)O[C@H](c1ccc(OC)c(OC)c1)[C@@H](O)C2: inactive
NCC1CCCCC1CC(=O)O (configuration not stated): inactive
COc1ccc2c(c1)OC[C@@H](Cc1ccc(OC)c(OC)c1)[C@@H]2O: inactive
S=C=NCc1ccccc1: active
COc1ccc2c(c1)OC[C@@H](Cc1ccc(OC)c(OC)c1)[C@H]2O: inactive

Data origin: PubChem BioAssay AID1159580
